Molecular target: T1, recombinant extracellular domain (ECD) of human TF, amino acid 1-219 of the mature chain, C-terminal His6-tag (human, UniProt P13726 33-251)
T1 construct: expressed in a mammalian system; used for ELISA and Biacore; biotinylated by NHS-ester for the Fab ELISA; also called His6-TF-ECD1-219; HumanTF1-219
Test: direct ELISA, 50 ng/ml
READOUT: binding result

M44 (antibody, V domains shown, complete MAb; FR4 is its own entry; also called H20/L2) VH: QVQLVQSGAEVKKPGASVKVSCKASGYTFITYWIEWVRQAPGQGLEWMGDILPGSGSTNYNENFKGRVTMTTDTSTSTAYMELRSLRSDDTAVYYCARSGYYGNSGFAYWGQGTLVTVSS VL: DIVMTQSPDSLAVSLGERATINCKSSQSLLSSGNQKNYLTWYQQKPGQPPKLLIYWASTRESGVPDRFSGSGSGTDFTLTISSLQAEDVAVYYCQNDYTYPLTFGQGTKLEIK
binds
M14 (antibody, V domains shown, complete MAb; FR4 is its own entry; also called H15/L7) VH: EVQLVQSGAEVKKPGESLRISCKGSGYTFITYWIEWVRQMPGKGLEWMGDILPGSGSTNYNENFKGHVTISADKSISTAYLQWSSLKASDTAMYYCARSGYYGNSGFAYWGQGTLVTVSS VL: DIVMTQTPLSSPVTLGQPASISCKSSQSLLSSGNQKNYLTWLQQRPGQPPRLLIYWASTRESGVPDRFSGSGAGTDFTLKISRVEAEDVGVYYCQNDYTYPLTFGQGTKLEIK
binds
M28 (antibody, V domains shown, complete MAb; FR4 is its own entry; also called H17/L7) VH: QVQLVQSGAEVKKPGASVKVSCKASGYTFITYWIEWVRQAPGQRLEWMGDILPGSGSTNYNENFKGRVTITRDTSASTAYMELSSLRSEDTAVYYCARSGYYGNSGFAYWGQGTLVTVSS VL: DIVMTQTPLSSPVTLGQPASISCKSSQSLLSSGNQKNYLTWLQQRPGQPPRLLIYWASTRESGVPDRFSGSGAGTDFTLKISRVEAEDVGVYYCQNDYTYPLTFGQGTKLEIK
binds
